// provenance: the supplement of paper PMC9112550

Listing of recorded shrunken log2 fold change by entry.
- Test system: Escherichia coli TOP10;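 further: peptides expressed intracellularly from a pBAD plasmid library in pooled LB shake-flask culture, induced with 0.3% L-arabinose, DNA abundance read by NGS, three biological replicates, DESeq2 with apeglm shrinkage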
- Protocol Details: shrunken log2 fold change of peptide-encoding DNA abundance (4.5 h post-induction vs induction); higher = less antimicrobial activity (less host growth inhibition)
- Experimental Setup: time post-induction: 4.5 h; library: site-saturation at positions 5, 18, 19, 20
Assay Endpoint: shrunken log2 fold change

Seq Text	Assay Endpoint	Observed Measurement
RRIRFRPPRLPRPRPRPGLTPRP	shrunken log2 fold change	-0.143
RRIRGRPPRLPRPRPRPFVEPRP	shrunken log2 fold change	0.236
RRIRNRPPRLPRPRPRPYYGPRP	shrunken log2 fold change	-0.105
RRIRRRPPRLPRPRPRPTDFPRP	shrunken log2 fold change	-0.00455
RRIRWRPPRLPRPRPRPHKFPRP	shrunken log2 fold change	-0.307
RRIRCRPPRLPRPRPRPSCPPRP	shrunken log2 fold change	-0.407
RRIRDRPPRLPRPRPRPGTCPRP	shrunken log2 fold change	-0.0724
RRIRPRPPRLPRPRPRPEYCPRP	shrunken log2 fold change	-0.146
RRIRCRPPRLPRPRPRPANCPRP	shrunken log2 fold change	-0.364
RRIRLRPPRLPRPRPRPLKEPRP	shrunken log2 fold change	0.00325
RRIRHRPPRLPRPRPRPGFPPRP	shrunken log2 fold change	0.336
RRIRPRPPRLPRPRPRPAEQPRP	shrunken log2 fold change	0.411
RRIRRRPPRLPRPRPRPALKPRP	shrunken log2 fold change	0.366
RRIRIRPPRLPRPRPRPYRVPRP	shrunken log2 fold change	-0.0849
RRIRMRPPRLPRPRPRPPQDPRP	shrunken log2 fold change	1.24
RRIRWRPPRLPRPRPRPCDSPRP	shrunken log2 fold change	-0.00192
RRIRPRPPRLPRPRPRPFTKPRP	shrunken log2 fold change	-0.148
